# method.description: Drug uptake in dosed iv mouse liver assessed as per gram of wet tissue measured after 5 to 60 mins
# Format: ADME, organism-based
# condition.summary: read-out: Drug uptake
readout.type: tissue uptake

Query :: Entry under review: `O=[11C](NCc1ccccc1)N1CCN(c2cncnc2-c2ccccc2)CC1` . Reported tissue uptake?
Result :: > 10 %ID/g

----------
# method.description: Drug uptake in iv dosed mouse pancreas assessed as per gram of wet tissue measured after 5 to 60 mins
# Type: ADME, organism-based
# condition.summary: read-out: Drug uptake
readout.type: tissue uptake

Query :: Entry under review: `O=[11C](NCc1ccccc1)N1CCN(c2cncnc2-c2ccccc2)CC1` . Reported tissue uptake?
Result :: > 10 %ID/g

----------
# method.description: Drug uptake in iv dosed mouse lung assessed as per gram of wet tissue measured after 5 to 60 mins
# Type: ADME, organism-based
# condition.summary: read-out: Drug uptake
readout.type: tissue uptake

Query :: Entry under review: `O=[11C](NCc1ccccc1)N1CCN(c2cncnc2-c2ccccc2)CC1` . Reported tissue uptake?
Result :: > 10 %ID/g

----------
# method.description: Tmax in iv dosed mouse small intestine
# Assay type: ADME, organism-based
readout.type: Tmax (min)
Response body: numeric value in min, unit text excluded.

Query :: Entry under review: `O=[11C](NCc1ccccc1)N1CCN(c2cncnc2-c2ccccc2)CC1` . Reported Tmax?
Result :: 30

----------
# target.entity: Cholesterol 24-hydroxylase (Homo sapiens, UniProt Q9Y6A2)
# Sequence (Q9Y6A2 whole entry, the tested form may be a part): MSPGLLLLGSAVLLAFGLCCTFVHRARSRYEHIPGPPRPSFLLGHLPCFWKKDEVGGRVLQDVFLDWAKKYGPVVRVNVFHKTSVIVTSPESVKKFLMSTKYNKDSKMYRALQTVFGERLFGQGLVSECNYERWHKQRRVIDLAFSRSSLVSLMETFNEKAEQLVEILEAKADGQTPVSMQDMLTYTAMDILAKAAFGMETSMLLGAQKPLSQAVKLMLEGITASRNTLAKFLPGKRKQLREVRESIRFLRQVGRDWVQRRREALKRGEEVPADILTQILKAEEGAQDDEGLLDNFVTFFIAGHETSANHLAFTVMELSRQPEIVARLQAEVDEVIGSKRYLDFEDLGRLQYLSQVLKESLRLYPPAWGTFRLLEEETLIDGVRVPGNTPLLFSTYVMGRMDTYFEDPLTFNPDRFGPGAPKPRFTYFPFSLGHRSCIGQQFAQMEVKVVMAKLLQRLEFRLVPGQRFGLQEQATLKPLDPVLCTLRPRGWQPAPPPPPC
# method.description: Binding affinity to truncated d(2-50) 4His-tagged human CYP46A1 expressed in Escherichia coli DH5alpha as cholesterol-24 hydroxylation using cholesterol as substrate incubated for 30 mins in presence of NADPH cytochrome P450 oxidoreductase by gas chromatography-mass spectrometry
readout.type: pKi
pKi field: float, defined as -log10 of concentration (mol/L).

Query :: Entry under review: `O=C(NCc1ccccc1)N1CCN(c2cncnc2-c2ccccc2)CC1` . Reported pKi?
Result :: 5.14

----------
# method.description: Drug uptake in iv dosed mouse small intestine assessed as per gram of wet tissue measured after 5 to 60 mins
# Type: ADME, organism-based
# condition.summary: read-out: Drug uptake
readout.type: tissue uptake

Query :: Entry under review: `O=[11C](NCc1ccccc1)N1CCN(c2cncnc2-c2ccccc2)CC1` . Reported tissue uptake?
Result :: > 10 %ID/g

Where do these numbers come from? They come from ChEMBL document CHEMBL4627337.
